Tested on: stimulated primary human T cells
Test: T cell proliferation assay (rescue of proliferation in presence of ATP, CFSE dilution)
Format: cell-based
Measurement parameters: 100 uM ATP, Condition B: X-VIVO15, 2% HSA and 0,1% AAG, read-out: (2) T Cell proliferation (Condition B) IC50
pIC50: −log10 of the molar value.
Documented pIC50 across a set of compounds

COc1cc2cc(c1OC)OCCCC(OC(=O)c1cccc(Oc3ccccc3)c1)CCN1CCCN(CCCOC2=O)CC1 (stereo not drawn) :: 6.30 to 7.70
COc1cc(C(=O)O[C@@H]2CCCOc3cc(cc(OC)c3OC)C(=O)OCCCN3CCCN(CC2)CC3)cc(OC)c1OC :: > 9.00

Data request, read-out pIC50, for COc1cc2cc(c1OC)OCCCC(OC(=O)c1ccc(OC(C)C)cc1)CCN1CCCN(CCCOC2=O)CC1 (stereo not drawn) 7.70 to 9.00
